- protocol: yeast display, Sf9 membrane polyspecificity reagent, FACS + sequencing; frameworks hold sequencing errors

{"columns": ["item_sequence", "polyreactivity (PSR sort gate)"],
 "data": [
  ["QVQLVESGGGLVQAGGSLRLSCAASGSISFINAIGWYRQATGKERELVAAISGSGGSTYYADSVKGRFTISRDNAKNTVFLQMNSLKPEDTAVYYCAVPLPSRIYGYWGQGTQVTVSS", "low polyreactivity"],
  ["QVQLVDSGGGLVQAGGSLRLSCAASGRTCYTNAMGWYRQAPGKERELVAAINRSGGSTYYADSVKGRFTISRDNAKNTVYLQMNSLKPEDTAVYYCNKAFTHTKYLSPIAYEYGYWGQGTQVTVSS", "low polyreactivity"]
]}

====

- protocol: yeast display, Sf9 membrane polyspecificity reagent, FACS + sequencing; frameworks hold sequencing errors

{"columns": ["item_sequence", "polyreactivity (PSR sort gate)"],
 "data": [
  ["QVQHVESRGGLVQAGGSLRLICAASGFTFSSYAMGWYRQAPGKERELVASISWRGGIPYYADSVKGRFTISRDNAKNTVDLQMISLKPEDTAVYYCAAVPSYHSTSPFYYWGQGTQVTVSS", "high polyreactivity"],
  ["QVQLVESGGGLVQAGGSLRLSCAASGRIFGYTMGWYRQAPGKERELVAAISKSGGSTYYADSVKGRFTISRDNAKNTVYLQMNSLKPEDTAVYYCNKPQRILYDYWGQGTQVTVSS", "high polyreactivity"]
]}

====

- protocol: yeast display, Sf9 membrane polyspecificity reagent, FACS + sequencing; frameworks hold sequencing errors
measured_parameter: polyreactivity (PSR sort gate)

Worked examples follow.
{"columns": ["item_sequence", "measured_parameter", "reported_measurement"],
 "data": [
  ["QVQLVESGGGLVQAGGSLRLSCAASGIIFSWYAMGWYRQAPGKERELVASITASGGSTYYADSVKGRFTISRDTAKNTVSFQMHSLKPEDTAVYYCAVRYGHRSFASVYVEYDYWGQGTQVTVSS", "polyreactivity (PSR sort gate)", "low polyreactivity"],
  ["QVQLVESGGGLVQAGGSLRLSCAASGFTFVNYVMGWYRQAHGKERELVAAISRSGGSTYYADSVKGRFTISRDNAKNTVYLQMNSLKPEDTAVYYCAARWFYRAGFNYWGQGTQVTVSS", "polyreactivity (PSR sort gate)", "high polyreactivity"],
  ["QVQLVESGGGLVQAGGSLRLSCAASGSNFGDNPMGWYRQAPGKERELVAAISSSGDSTYYADSVKGRFTISRDNAKNTVYLQMNSLKPEDTAVYYCADDRGSTAGSVTYTPGNYWGQGTQVTVSS", "polyreactivity (PSR sort gate)", "low polyreactivity"],
  ["QVQLVESGGGLVQAGGSLRLSCAASGRTFLTYVMGRYRQAPGKERELVAAITRGGRTNYADSVKGRFTISRDNAKNTVYLQMNSLKPEDTAVYYCARDDTPRYDYWGQGTQVTVSS", "polyreactivity (PSR sort gate)", "low polyreactivity"],
  ["QVQLVESGGGLVQAGGSLRLSCAASGRTFVDYDMGWYRQAPGKERELVADINSGGSTYYADSVKGRFTISRDNAKNTVYLQMNSLKPEDTAVYYCAARPYYWGQGTQVTVSS", "polyreactivity (PSR sort gate)", "high polyreactivity"],
  ["QVQLVESGGGLVQAGGSLRLRCAASGRTFCWYAMGWYRQAPGKERELVADITYSGGNTYYADSVKGRFTITRDNAKNTVYLQMNSLKPEDTAVYYCAAERKNKYDYWGQGTQVTVTS", "polyreactivity (PSR sort gate)", "high polyreactivity"]
]}

Provide the reported polyreactivity (PSR sort gate) of each entry below, same order.
1. QVQLVESGGGLVQAGGSLRLSCAASGFIFRYYAMGRYRQAPGKERELVAAISYSGGSTYYADSVKGRFTFSRDNAKNTVYLQINSMKPEDTAVYYCAKYTTSVYKQSLQQGYDYWGQGTQVSVSS
2. QVQLVESGGGLVQAGGSLRLSCAASGRIFDRNAMGWYRQAPGTERELVAAISRRGGSTYYADSVKGRFTISRDNAMNTVYLQMNSLKPEDTAVYYCNTGYSTRLHDYWGQGTQVTVSS
3. QVHLVESGGGLVQAGGSLRLSCAASGFIFISNSMGCYRQEPGKERELVARISDTDRTHYADSVKGRFTISRDNAKNTVYLQMNSQNPEDTAVYSCATDQSLLDKVYYDVQYDFWGQGTQVTVSS

Return:
high polyreactivity
high polyreactivity
low polyreactivity

Provide the reported polyreactivity (PSR sort gate) of each entry below, same order.
1. QVQLVESGGGLVQAGGSLRLSCASSGSTFNPYAMGWYRQAPGKERELVAAISRGGRTKYADSVKGRFSISRDNAKNTVYCHMNSLKPEDTAVYYCAARQRSRSRYDYWGQVTQVTVSS
2. QVQLVESGGGLVQAGGSLRLSCAASGRTFRWTAMGWYRQAPGKERELVAAISYSGGSTYYADSVKGRFTISRDNAKNTVYLQMNSLKPEDTAVYYCAKAYSWYPIIRGLDSWGQGTQVTVSS

Return:
high polyreactivity
high polyreactivity

====

- protocol: yeast display, Sf9 membrane polyspecificity reagent, FACS + sequencing; frameworks hold sequencing errors
measured_parameter: polyreactivity (PSR sort gate)

{"columns": ["item_sequence", "reported_measurement"],
 "data": [
  ["QVQLVESGGGLVQAGGSLRLSCAASGRIFSKNAMGCYRQQPGKERELVAAISRSGGGTYYADSVKGRFTISRDTAKNTVYLQMNSLKPEDTAVYYCATRYGSWGQGTQVTVSS", "high polyreactivity"],
  ["QVQLVESGGGLVQAGGSLRLSCAASGSTFRYYTMGWYRQAPGKERELVAAITWSGGSTYYADSVKGRFTISRDNAKNTVYLQMNSLKPEDTAVYYCAADRYSYGSNGYPRFEYYYWGQGTQVTVSS", "high polyreactivity"]
]}

====

- protocol: yeast display, Sf9 membrane polyspecificity reagent, FACS + sequencing; frameworks hold sequencing errors
measured_parameter: polyreactivity (PSR sort gate)

{"columns": ["item_sequence", "polyreactivity (PSR sort gate)"],
 "data": [
  ["QVQLVESGGGLVQAGGSLRLSCAASGITFARYAMGWYRQAPGKERELVAAISSRGGRTYYADSVKGRFTISRDNAKNTVYLQMNSLKPEDTAVYYCAADYVWSTISGYWGQGTQVTVSS", "high polyreactivity"],
  ["QVQLVESGGGLVQAGGSLRLSFAATGRICSPYAMGWYRQAPGKERELVAAISYDDGITYYADSVKGRFTISRDNATNTVYLQMNSLTPEDTAVYYCAADSVTRPAGDYWGQGTQVTVSS", "low polyreactivity"],
  ["QVQLVESGGGLVQAGGSLRISCAASGNIFDRYAMGWYRQAPGKEMELVAGITWSGGSTYYADSVKGRFTISRDNAKNTVYLQMNSLKPEDTAVYYCAKDPHGSDFGYWGQGTQVTVSS", "low polyreactivity"],
  ["QVQLVESGGGLDQAGGSLRLSCAASGSTFTKNVMGWYRQAPGKERELVAAISSGGRTNYADSVKGRFTISRDNAKNTVYLQMNSLKPEDTAVYFCAADVGYFKSDYWGQGTQVTVSS", "low polyreactivity"]
]}

Now, please, on to the next sequence.
Enquiry: // polyreactivity (PSR sort gate) lookup, key: QVQLVESWGGLVQAGGSLRLSCAASGYTFSAYAMGWYRQAPGKERELVAAISWSGASTSYADSVKGRFTISRDNAKNTVYLQMNSLKPEDTAVYYCAARRLHYQFKYYSWGQGTQVTVSS
Return: high polyreactivity

====

- protocol: yeast display, Sf9 membrane polyspecificity reagent, FACS + sequencing; frameworks hold sequencing errors
measured_parameter: polyreactivity (PSR sort gate)

Worked examples follow.
{"columns": ["item_sequence", "polyreactivity (PSR sort gate)"],
 "data": [
  ["QVQLVESGGGLVQAGGSLRLSCAASGSTFWYNAMGWYRPAPGKERELVAAITWSGGSTYYADSVKGRFTISRDNAKNTVYLQMNSLKPEDTAVYYCAADHSAYSVFSGYKYGYWGQGTQVTVSS", "low polyreactivity"],
  ["QVQLVESGGGLVQAGGSLRLSCAASGSIFVYNAMGWYRQAPGKERELVAAIDTVGSTNYADSVKGRFTISRDNAKNTVYLQMNSLNPEDSAVYYCAVVTPYWSFYEQVIPSNYWGQGTQVSVSS", "low polyreactivity"],
  ["QVQLVESGGGLVQAGGSLRLSCAASGRIFVVNAMGWYRQAPGKERELVAAISRSGGSTYYADSVKGRFTISRDNAKNTVYLQMNSLKPEETAVYFCAAVSWIYSFSAMSIYDYWGQGTQVTVSS", "high polyreactivity"],
  ["QVQLVESGGGLVQAGRSLRLSCAASGSTFPVNTMGWYRQAPGKERELVAAITKNGANTYYADSVKGRFTISRDNAKNTVYLQMNSLKPEYTAVYYCAALYVYGKSYSRWLVELDYWGQGTQVTVSS", "low polyreactivity"]
]}

Provide the reported polyreactivity (PSR sort gate) of each entry below, same order.
1. QVQLVESGGGLVQAGGSLRLSCAASGFTFYTYAMGWYRQAPGKEMELVADISSGGSTNYADSVKGRFTISRDNAKNTVYLQMNSLKPEDTAVYYCSADYYFLDWYDYWGQGTQVTVSS
2. QVQLVESGGGLVQAGGSLRLSCAASGRTFHIYAMGWYRQAPGKERELVAAIRGRSGSTYYADSVKGRFTISRDNAKNTVYLQMNSLKPEDTAVYYCAAEYWGRYGAPEYDYWGQGTQVTVSS
3. QVQLVESGGALVQAGGSLRLSCAASGSIFFENAMGWYRPAPGKERELVAAIRSGVDTYYADSVKGRFTLSRDNAKNTVYLQMNSLKPQDTAVYNCNADAYYYYAIWWSEVDYWGQGTQVTVSS
4. QVQLVETGGGLVQAGGSLRLSCASSGSIFRAYAMGWYRQAPGNERELVAYISRSGGSTYYADSVKGRFTISRDNAKNTVYLQMNSLTQEDTAFYYCAAVFYLYSNLYGEYDYWGQGTQVTVSS
5. QVQLVESGGGLVQAGGSLRLSCAASGRIFYEYAMGWYRQAPGKERELVAAITRGDSTYYADSVKGRCTISRDNAKNTVYLQMNSLKPEDTAVYYCNAGVFDYSGDSNYWGQGTQVTVSS
6. QVQLVESGGGLVQAGGSLRLICAASGSIFDRYVMGWYRQAPGKERELVAAITTSGDGTYYADSVKGRFTISRDNAKNTVYLQMNSLKPEDTAVYYCAAVRRSWKYSTSDYWGQGTQVTVSS
7. QVQLVESGGGLFQAGGRLRLSCAASGRNCNAYTMGWYRQAPGKERELVAAISRRGGSTYYADSVKGRFTISRDNAQNTVSLQMNSLNPEDTAVYYCATKSQYDYDYWGQGTQVTVSS

Return:
1. low polyreactivity
2. high polyreactivity
3. low polyreactivity
4. low polyreactivity
5. low polyreactivity
6. low polyreactivity
7. high polyreactivity
